Known Ratio of a selection of compounds
Target: Amine oxidase [flavin-containing] B (Bos taurus, UniProt P56560)
Sequence (P56560 whole entry): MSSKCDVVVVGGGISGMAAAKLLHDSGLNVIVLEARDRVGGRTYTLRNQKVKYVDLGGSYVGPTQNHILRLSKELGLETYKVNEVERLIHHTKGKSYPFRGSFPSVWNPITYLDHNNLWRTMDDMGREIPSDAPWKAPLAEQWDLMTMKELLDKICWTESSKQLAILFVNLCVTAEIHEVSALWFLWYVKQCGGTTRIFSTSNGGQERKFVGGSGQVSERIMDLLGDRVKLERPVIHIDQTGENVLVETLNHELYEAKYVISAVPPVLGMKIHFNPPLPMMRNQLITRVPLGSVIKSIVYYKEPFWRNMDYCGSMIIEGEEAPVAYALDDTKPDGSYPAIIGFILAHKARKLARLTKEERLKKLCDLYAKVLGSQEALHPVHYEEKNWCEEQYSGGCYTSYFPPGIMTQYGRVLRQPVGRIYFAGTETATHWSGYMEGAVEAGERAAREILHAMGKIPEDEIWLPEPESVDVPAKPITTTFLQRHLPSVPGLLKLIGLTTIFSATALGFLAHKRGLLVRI
Test: Ratio of Kcat versus Km was determined

These solved cases illustrate the format of a correct answer.
CN1CC=C(n2ncc3ccccc32)CC1 = 850
CN1CC=C(c2ccncc2)CC1 = 6

Would you kindly share the measured Ratio for CN1CC=C(n2cnc3ccccc32)CC1 ?
220

Entry under review: CN1CC=C(n2nnc3ccccc32)CC1 . Reported Ratio?
675

# lookup: Ratio of CN1CC=C(n2ccc3ccccc32)CC1
3350

// lookup Ratio for CN1CC=C(c2ccccn2)CC1
60

Param item = CN1CC=C(n2cccc2)CC1 ; retrieve measured Ratio.
410

Which Ratio value belongs to CN1CC=C(c2cccnc2)CC1 ?
35
